The measurements presented in this section are drawn from paper PMC4984800.

Measurement description: First-in-human trial: pharmacokinetics in plasma and urine
Assay type: in vivo
Details: human, plasma, oral, 40 mg, Schedule 3, 40mg, Day 22, N=4; median (range); read-out: T1/2 (converted)
Assay metric: half-life (h)
Give the value in h but do not write h after it.

Lab book: half-life of `COc1cccc2cc(-c3nc([C@H]4CC[C@H](C(=O)O)CC4)n4ncnc(N)c34)[nH]c12` noted as 15.9

---

Measurement description: First-in-human trial: pharmacokinetics in plasma and urine
Type: in vivo
Details: human, plasma, oral, 160 mg, Schedule 1, 160 mg, Day 3, N=5; median (range)
Assay metric: Cmax (ng/mL)
Give the value in ng/mL but do not write ng/mL after it.

Lab book: Cmax of COc1cccc2cc(-c3nc([C@H]4CC[C@H](C(=O)O)CC4)n4ncnc(N)c34)[nH]c12 [OSI-027] noted as 11000

---

Measurement description: First-in-human trial: pharmacokinetics in plasma and urine
Type: in vivo
Details: human, plasma, oral, 25 mg, Schedule 3, 25 mg, Day 22, N=3; median (range)
Assay metric: Cmax (ng/mL)
Give the value in ng/mL but do not write ng/mL after it.

Lab book: Cmax of COc1cccc2cc(-c3nc([C@H]4CC[C@H](C(=O)O)CC4)n4ncnc(N)c34)[nH]c12 [OSI-027] noted as 1790

---

Measurement description: First-in-human trial: pharmacokinetics in plasma and urine
Assay type: in vivo
Details: human, plasma, oral, 35 mg, Schedule 3, 35 mg, Day 22, N=4; median (range)
Assay metric: Cmax (ng/mL)
Give the value in ng/mL but do not write ng/mL after it.

Lab book: Cmax of `COc1cccc2cc(-c3nc([C@H]4CC[C@H](C(=O)O)CC4)n4ncnc(N)c34)[nH]c12` noted as 2300

---

Measurement description: First-in-human trial: pharmacokinetics in plasma and urine
Format: in vivo
Details: human, plasma, oral, 160 mg, Schedule 1, 160 mg, Day 1, N=5; median (range)
Assay metric: Cmax (ng/mL)
Give the value in ng/mL but do not write ng/mL after it.

Lab book: Cmax of `COc1cccc2cc(-c3nc([C@H]4CC[C@H](C(=O)O)CC4)n4ncnc(N)c34)[nH]c12` noted as 9330

---

Measurement description: First-in-human trial: pharmacokinetics in plasma and urine
Assay type: in vivo
Details: human, plasma, oral, 30 mg, Schedule 1, 30 mg, Day 3, N=3; median (range)
Assay metric: Cmax (ng/mL)
Give the value in ng/mL but do not write ng/mL after it.

Lab book: Cmax of COc1cccc2cc(-c3nc([C@H]4CC[C@H](C(=O)O)CC4)n4ncnc(N)c34)[nH]c12 [OSI-027] noted as 2120

---

Measurement description: First-in-human trial: pharmacokinetics in plasma and urine
Assay type: in vivo
Details: human, plasma, oral, 120 mg, Schedule 1, 120 mg, Day 3, N=13; median (range); read-out: AUC24hr
Method: Blood and urine samples were collected at prespecified time points for 24 h after initial dose and at days 2–3 (S2) and after multiple doses on days 3–4 (S1) and 22–23 (S3) across dose levels. Predose samples were collected on days 8, 15 and 22. […] Descriptive statistics were used to summarise the safety data, including all patients who received at least one dose of OSI-027. […] Response to treatment was evaluated according to Response Evaluation Criteria in Solid Tumors (RECIST) ([Therasse et al, 2000]).
Assay metric: AUC(0-t) (ng·h/mL)
Give the value in ng·h/mL but do not write ng·h/mL after it.

Lab book: AUC(0-t) of COc1cccc2cc(-c3nc([C@H]4CC[C@H](C(=O)O)CC4)n4ncnc(N)c34)[nH]c12 [OSI-027] noted as 54500

---

Measurement description: First-in-human trial: pharmacokinetics in plasma and urine
Type: in vivo
Details: human, plasma, oral, 90 mg, Schedule 1, 90 mg, Day 1, N=14; median (range)
Assay metric: AUC(0-inf)
Include the unit after the number when you answer.

Lab book: AUC(0-inf) of COc1cccc2cc(-c3nc([C@H]4CC[C@H](C(=O)O)CC4)n4ncnc(N)c34)[nH]c12 [OSI-027] noted as 90300 ng·h/mL

---

Measurement description: First-in-human trial: pharmacokinetics in plasma and urine
Format: in vivo
Details: human, plasma, oral, 15 mg, Schedule 1, 15 mg, Day 1, N=4; median (range); read-out: T1/2 (converted)
Assay metric: half-life (h)
Give the value in h but do not write h after it.

Lab book: half-life of `COc1cccc2cc(-c3nc([C@H]4CC[C@H](C(=O)O)CC4)n4ncnc(N)c34)[nH]c12` noted as 7.12

---

Measurement description: First-in-human trial: pharmacokinetics in plasma and urine
Type: in vivo
Details: human, plasma, oral, 25 mg, Schedule 3, 25 mg, Day 1, N=3; median (range)
Assay metric: AUC(0-inf) (µg·h/mL)
Give the value in µg·h/mL but do not write µg·h/mL after it.

Lab book: AUC(0-inf) of COc1cccc2cc(-c3nc([C@H]4CC[C@H](C(=O)O)CC4)n4ncnc(N)c34)[nH]c12 [OSI-027] noted as 25.1

---

Measurement description: First-in-human trial: pharmacokinetics in plasma and urine
Format: in vivo
Details: human, plasma, oral, 10 mg, Schedule 3, 10 mg, Day 22, N=3; median (range)
Experimental: Blood and urine samples were collected at prespecified time points for 24 h after initial dose and at days 2–3 (S2) and after multiple doses on days 3–4 (S1) and 22–23 (S3) across dose levels. Predose samples were collected on days 8, 15 and 22. […] Descriptive statistics were used to summarise the safety data, including all patients who received at least one dose of OSI-027. […] Response to treatment was evaluated according to Response Evaluation Criteria in Solid Tumors (RECIST) ([Therasse et al, 2000]).
Assay metric: Cmax

Lab book: Cmax of COc1cccc2cc(-c3nc([C@H]4CC[C@H](C(=O)O)CC4)n4ncnc(N)c34)[nH]c12 [OSI-027] noted as 457 ng/mL

---

Measurement description: First-in-human trial: pharmacokinetics in plasma and urine
Assay type: in vivo
Details: human, plasma, oral, 65 mg, Schedule 1, 65 mg, Day 1, N=3; median (range); read-out: T1/2 (converted)
Assay metric: half-life (h)
Give the value in h but do not write h after it.

Lab book: half-life of `COc1cccc2cc(-c3nc([C@H]4CC[C@H](C(=O)O)CC4)n4ncnc(N)c34)[nH]c12` noted as 7.01

---

Measurement description: First-in-human trial: pharmacokinetics in plasma and urine
Format: in vivo
Details: human, plasma, oral, 40 mg, Schedule 3, 40mg, Day 1, N=6; median (range); read-out: T1/2 (converted)
Assay metric: half-life (h)
Give the value in h but do not write h after it.

Lab book: half-life of COc1cccc2cc(-c3nc([C@H]4CC[C@H](C(=O)O)CC4)n4ncnc(N)c34)[nH]c12 [OSI-027] noted as 17.8

---

Measurement description: First-in-human trial: pharmacokinetics in plasma and urine
Format: in vivo
Details: human, plasma, oral, 40 mg, Schedule 3, 40mg, Day 1, N=6; median (range)
Assay metric: AUC(0-inf) (ng·h/mL)
Give the value in ng·h/mL but do not write ng·h/mL after it.

Lab book: AUC(0-inf) of `COc1cccc2cc(-c3nc([C@H]4CC[C@H](C(=O)O)CC4)n4ncnc(N)c34)[nH]c12` noted as 77100

---

Measurement description: First-in-human trial: pharmacokinetics in plasma and urine
Type: in vivo
Details: human, plasma, oral, 65 mg, Schedule 1, 65 mg, Day 1, N=3; median (range)
Assay metric: Cmax (ng/mL)
Give the value in ng/mL but do not write ng/mL after it.

Lab book: Cmax of `COc1cccc2cc(-c3nc([C@H]4CC[C@H](C(=O)O)CC4)n4ncnc(N)c34)[nH]c12` noted as 4750

---

Measurement description: First-in-human trial: pharmacokinetics in plasma and urine
Type: in vivo
Details: human, plasma, oral; patients, across dose levels
Assay metric: Tmax

Lab book: Tmax of COc1cccc2cc(-c3nc([C@H]4CC[C@H](C(=O)O)CC4)n4ncnc(N)c34)[nH]c12 [OSI-027] noted as ≤ 4 h

---

Measurement description: First-in-human trial: pharmacokinetics in plasma and urine
Format: in vivo
Details: human, plasma, oral, 20 mg, Schedule 2, 20 mg, N=3; median (range); read-out: T1/2 (converted)
Method: Blood and urine samples were collected at prespecified time points for 24 h after initial dose and at days 2–3 (S2) and after multiple doses on days 3–4 (S1) and 22–23 (S3) across dose levels. Predose samples were collected on days 8, 15 and 22. […] Descriptive statistics were used to summarise the safety data, including all patients who received at least one dose of OSI-027. […] Response to treatment was evaluated according to Response Evaluation Criteria in Solid Tumors (RECIST) ([Therasse et al, 2000]).
Assay metric: half-life (h)
Give the value in h but do not write h after it.

Lab book: half-life of `COc1cccc2cc(-c3nc([C@H]4CC[C@H](C(=O)O)CC4)n4ncnc(N)c34)[nH]c12` noted as 7.65
